- targetUnderTest: human adenosine A2b receptor (Homo sapiens, UniProt P29275)
- Sequence (P29275 whole entry): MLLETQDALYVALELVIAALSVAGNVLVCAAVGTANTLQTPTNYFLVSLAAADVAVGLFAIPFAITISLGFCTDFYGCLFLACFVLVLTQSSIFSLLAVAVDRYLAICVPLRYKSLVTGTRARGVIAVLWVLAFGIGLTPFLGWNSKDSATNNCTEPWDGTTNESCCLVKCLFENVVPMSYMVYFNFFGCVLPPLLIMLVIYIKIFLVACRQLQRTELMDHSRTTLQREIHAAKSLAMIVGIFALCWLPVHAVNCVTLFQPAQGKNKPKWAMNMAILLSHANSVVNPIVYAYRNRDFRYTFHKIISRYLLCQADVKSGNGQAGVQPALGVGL
- measurementDescription: Cellular in vitro reporter gene test for A2b receptor activity (antagonism of NECA)
- Assay type: cell-based
- Set-up: expressed in transfected cells; host or cells: CHO-K1 (Chinese hamster ovary) with CRE-luciferase reporter
- measurementParameters: recombinant CHO-K1 cells, CRE-luciferase reporter, co-incubation with EC50 concentration of NECA, 3 hours
Reported IC50 maps to class as: lo = under 10 nM, mid = from 10 nM up to 40 nM, hi = 40 nM and over

QUERY: Could you tell me which band `Cc1c(Cn2nc[nH]c2=O)sc2c1c(=O)n([C@H]1C[C@@H]1C)c(=O)n2C` belongs to?
RESULT: mid

QUERY: Could you tell me which band `CO[C@H]1C[C@H](n2c(=O)c3c(C)c(CN4CCNC4=NC#N)sc3n(CCC(F)(F)F)c2=O)C1` belongs to?
RESULT: mid

Recorded values, source patent US20200016159A1.
